target: 5-hydroxytryptamine receptor 2A (Rattus norvegicus) (UniProt P14842); assay: Agonist activity at 5HT2A receptor in rat A7r5 cells assessed as intracellular calcium mobilization; assay type: functional, cell-based
Sequence (P14842 whole entry): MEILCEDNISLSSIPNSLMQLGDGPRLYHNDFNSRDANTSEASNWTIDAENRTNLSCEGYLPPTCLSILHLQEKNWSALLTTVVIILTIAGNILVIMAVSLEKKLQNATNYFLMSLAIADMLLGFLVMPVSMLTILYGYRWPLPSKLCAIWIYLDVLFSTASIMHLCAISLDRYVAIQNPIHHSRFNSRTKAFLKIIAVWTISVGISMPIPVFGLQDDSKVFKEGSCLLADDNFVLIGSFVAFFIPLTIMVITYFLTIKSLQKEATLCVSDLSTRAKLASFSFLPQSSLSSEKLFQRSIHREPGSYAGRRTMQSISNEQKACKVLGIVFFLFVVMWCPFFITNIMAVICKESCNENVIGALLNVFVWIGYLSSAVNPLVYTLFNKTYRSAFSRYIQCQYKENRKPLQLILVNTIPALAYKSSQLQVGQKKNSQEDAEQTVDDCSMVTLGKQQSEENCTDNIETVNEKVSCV
value.type: Emax (%)
API: value field is a number in %; no unit string.

**Q:** GET /values?readout=Emax&item= Cc1noc(Cc2c3c(c(C[C@@H](C)N)c4c2OCC4)OCC3)n1
**A:** 33

**Q:** So what does the record say about Emax for COc1cc(C[C@@H](C)N)c(OC)cc1I ?
**A:** 33

**Q:** Query: Emax; subject: COCCOCc1c2c(c(C[C@@H](C)N)c3c1OCC3)OCC2
**A:** 50

**Q:** Given the entry COCc1c2c(c(C[C@@H](C)N)c3c1OCC3)OCC2 , report its measured Emax.
**A:** 54

**Q:** I am curious: what Emax value has been reported for C[C@@H](N)[C@H](O)c1c2c(c(Br)c3c1OCC3)OCC2 ?
**A:** 96
